- Protocol Summary: Plasma clearance in monkey
- Type: ADME, organism-based, Macaca mulatta
- Experimental Parameters: rhesus monkey
Quantity Kind: clearance (mL/min/kg)

                                   compound  measured_result
0  O=C1Nc2ccc(F)c(F)c2C(CC(F)F)(c2ccc(F)cc2)N1CC(F)(F)F (stereo unspecified)               23

---

- Target Desc: Voltage-dependent T-type calcium channel subunit alpha-1I (Homo sapiens) (UniProt Q9P0X4)
- Sequence (Q9P0X4 whole entry): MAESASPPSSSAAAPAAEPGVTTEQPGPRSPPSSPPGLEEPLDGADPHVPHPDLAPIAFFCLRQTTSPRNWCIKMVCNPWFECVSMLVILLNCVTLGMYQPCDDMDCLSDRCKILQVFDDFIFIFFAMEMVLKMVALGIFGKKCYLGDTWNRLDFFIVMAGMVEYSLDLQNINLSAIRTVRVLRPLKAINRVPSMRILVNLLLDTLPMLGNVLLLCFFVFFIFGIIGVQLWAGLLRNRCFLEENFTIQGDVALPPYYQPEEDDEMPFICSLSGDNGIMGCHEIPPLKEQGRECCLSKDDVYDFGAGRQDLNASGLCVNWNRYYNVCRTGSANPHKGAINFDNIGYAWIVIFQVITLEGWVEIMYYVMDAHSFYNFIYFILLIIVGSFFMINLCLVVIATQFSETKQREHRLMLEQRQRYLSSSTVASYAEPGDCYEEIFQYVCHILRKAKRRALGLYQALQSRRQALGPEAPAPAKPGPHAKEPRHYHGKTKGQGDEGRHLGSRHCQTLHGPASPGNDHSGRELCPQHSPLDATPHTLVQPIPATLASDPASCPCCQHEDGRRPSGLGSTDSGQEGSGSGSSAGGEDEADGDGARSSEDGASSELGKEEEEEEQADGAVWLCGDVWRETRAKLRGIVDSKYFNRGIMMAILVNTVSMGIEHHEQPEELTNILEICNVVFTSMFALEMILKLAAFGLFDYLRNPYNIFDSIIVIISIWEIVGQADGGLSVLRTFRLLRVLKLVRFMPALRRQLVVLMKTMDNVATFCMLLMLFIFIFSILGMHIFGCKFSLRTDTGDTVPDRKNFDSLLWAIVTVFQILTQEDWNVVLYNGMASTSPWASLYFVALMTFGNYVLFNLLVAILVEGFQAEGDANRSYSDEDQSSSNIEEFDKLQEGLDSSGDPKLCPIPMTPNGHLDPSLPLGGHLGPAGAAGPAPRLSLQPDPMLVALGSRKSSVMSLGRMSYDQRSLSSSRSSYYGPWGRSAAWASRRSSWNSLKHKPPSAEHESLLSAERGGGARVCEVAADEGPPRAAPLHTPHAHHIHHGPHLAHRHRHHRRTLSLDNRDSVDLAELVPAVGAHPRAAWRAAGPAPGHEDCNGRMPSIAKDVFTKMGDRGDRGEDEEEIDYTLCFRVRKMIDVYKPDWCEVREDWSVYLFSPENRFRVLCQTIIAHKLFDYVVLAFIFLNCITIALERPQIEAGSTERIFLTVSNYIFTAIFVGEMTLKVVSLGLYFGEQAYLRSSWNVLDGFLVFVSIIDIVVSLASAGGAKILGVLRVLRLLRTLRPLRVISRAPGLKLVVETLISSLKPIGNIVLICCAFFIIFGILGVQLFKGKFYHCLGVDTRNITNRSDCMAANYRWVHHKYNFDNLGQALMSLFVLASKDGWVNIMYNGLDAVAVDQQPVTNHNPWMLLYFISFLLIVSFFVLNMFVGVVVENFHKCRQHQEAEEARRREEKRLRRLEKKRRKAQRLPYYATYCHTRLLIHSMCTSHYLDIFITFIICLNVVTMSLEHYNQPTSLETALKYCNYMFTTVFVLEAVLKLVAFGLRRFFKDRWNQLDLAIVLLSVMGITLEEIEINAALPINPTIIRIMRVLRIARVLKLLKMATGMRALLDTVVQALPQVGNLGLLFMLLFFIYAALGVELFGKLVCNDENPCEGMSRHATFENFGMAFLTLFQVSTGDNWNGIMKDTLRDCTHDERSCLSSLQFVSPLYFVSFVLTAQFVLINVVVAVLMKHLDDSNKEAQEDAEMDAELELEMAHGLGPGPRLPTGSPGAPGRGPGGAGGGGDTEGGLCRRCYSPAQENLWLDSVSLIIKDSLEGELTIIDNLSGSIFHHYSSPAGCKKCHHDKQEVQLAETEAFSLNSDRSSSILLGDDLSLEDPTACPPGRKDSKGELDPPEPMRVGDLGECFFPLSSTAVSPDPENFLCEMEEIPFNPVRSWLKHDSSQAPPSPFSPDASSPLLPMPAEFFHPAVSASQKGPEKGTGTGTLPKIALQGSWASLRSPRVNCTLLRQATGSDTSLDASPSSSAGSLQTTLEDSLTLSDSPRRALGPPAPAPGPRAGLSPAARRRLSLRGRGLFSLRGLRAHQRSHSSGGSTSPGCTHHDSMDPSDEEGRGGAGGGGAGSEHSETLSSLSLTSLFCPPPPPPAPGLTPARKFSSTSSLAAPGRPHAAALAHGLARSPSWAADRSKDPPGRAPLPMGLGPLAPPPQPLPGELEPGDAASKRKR
- Protocol Summary: Antagonist activity at Cav3.3 alpha1i by depolarized FLIPR assay
- Assay type: functional
Reported Activity values for the following molecules.
Quantity Kind: Activity

In [3]: df
Out[3]:
                                    molecule  measured_result
 0  CCCC1(c2cccc(Oc3ccccn3)c2)c2cc(Cl)ccc2NC(=O)N1CC(F)(F)F (stereo not given)            73 nM
 1  CC[C@]1(c2ccc(F)cc2)c2cc(Cl)ccc2NC(=O)N1CC(F)(F)F            61 nM
 2  CCC1(c2ccc(F)cc2)c2cc(F)ccc2NC(=O)N1CC(F)(F)F (stereo not given)            25 nM
 3  CCC1(c2ccccc2)c2c(ccc(F)c2F)NC(=O)N1CC(F)(F)F (single isomer, unassigned)            20 nM
 4  CCCC1(c2cccc(-c3ccnn3C)c2)c2cc(Cl)ccc2NC(=O)N1CC(F)(F)F (stereo not given)           318 nM
 5  CCCC1(c2cccc(N3CCOCC3)c2)c2cc(Cl)ccc2NC(=O)N1CC(F)(F)F (stereo not given)           161 nM
 6  O=C1Nc2ccc(F)c(F)c2C(CCF)(c2ccc(F)cc2)N1CC(F)(F)F (stereo not given)            17 nM
 7  N#Cc1ccc([C@@]2(C3CC3)c3cc(Cl)ccc3NC(=O)N2CC(F)(F)F)cc1            14 nM
 8  O=C1Nc2ccc(Cl)cc2C(CC(F)F)(c2ccc(F)cc2)N1CC(F)(F)F (single isomer, unassigned; 31A)            60 nM
 9  CCCC1(c2ccc(F)cc2)c2cc(Cl)ccc2NC(=O)N1CC(F)(F)F (single isomer, unassigned; 24A)            25 nM
10  CCCC1(c2ccc(F)cc2)c2cc(Cl)ccc2NC(=O)N1CC(F)(F)F (single isomer, unassigned; 24B)          1320 nM
11  CCCC1(c2ccc(OC)cc2)c2cc(Cl)ccc2NC(=O)N1CC(F)(F)F (stereo not given)           879 nM
12  CCCC1(c2cccc(OC)c2)c2cc(Cl)ccc2NC(=O)N1CC(F)(F)F (stereo not given)           171 nM
13  CCC1(c2ccccc2)c2c(F)cccc2NC(=O)N1CC(F)(F)F (stereo not given)           111 nM
14  CCC1(c2ccccc2)c2c(ccc(Cl)c2F)NC(=O)N1CC(F)(F)F (stereo not given)           132 nM
15  C=CCC1(c2ccccc2)c2cc(Cl)ccc2NC(=O)N1CC(F)(F)F (stereo not given)            87 nM
16  CCC1(c2ccccc2)c2c(F)ccc(F)c2NC(=O)N1CC(F)(F)F (stereo not given)           657 nM
17  CCC1(c2ccc(F)cc2)c2c(ccc(F)c2F)NC(=O)N1CC(F)(F)F (stereo not given)            16 nM
18  N#CC1(c2ccc(F)cc2)c2c(ccc(F)c2F)NC(=O)N1CC(F)(F)F (stereo not given)           290 nM
19  CCC1(c2ccccc2)c2cc(Cl)ccc2NC(=O)N1CC(F)(F)F (single isomer, unassigned; 21B)          3880 nM

---

- Species: Homo sapiens
- Protocol Summary: Plasma protein binding in human
- Experimental Parameters: read-out: PPB (converted)
Quantity Kind: fraction unbound

                                   compound     quantity_kind  measured_result
0  O=C1Nc2ccc(F)c(F)c2C(CC(F)F)(c2ccc(F)cc2)N1CC(F)(F)F (stereo unspecified)  fraction unbound            0.015

---

- Target Desc: PXR (nuclear receptor subfamily 1 group I member 2) (Homo sapiens, UniProt O75469)
- Sequence (O75469 whole entry): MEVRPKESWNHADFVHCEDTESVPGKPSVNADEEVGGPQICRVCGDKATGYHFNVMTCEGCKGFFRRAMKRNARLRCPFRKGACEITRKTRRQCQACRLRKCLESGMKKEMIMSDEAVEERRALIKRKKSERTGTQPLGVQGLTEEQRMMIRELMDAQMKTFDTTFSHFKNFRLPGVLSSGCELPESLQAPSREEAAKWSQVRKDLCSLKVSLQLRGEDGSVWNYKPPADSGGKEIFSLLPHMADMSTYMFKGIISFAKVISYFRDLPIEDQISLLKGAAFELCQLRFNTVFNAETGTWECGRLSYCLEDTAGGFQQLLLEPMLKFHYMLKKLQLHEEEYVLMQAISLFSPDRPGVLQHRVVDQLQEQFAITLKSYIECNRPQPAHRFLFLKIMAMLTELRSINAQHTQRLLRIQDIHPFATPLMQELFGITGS
- Protocol Summary: PXR activation relative to rifampicin at 10 uM
- Experimental Parameters: activation
Reported activation at 10 µM values for the following compounds.
Quantity Kind: activation at 10 µM (%)

                                   compound                               target_desc        quantity_kind  endpoint_unit  measured_result
0  CCCC1(c2ccccc2)c2cc(F)ccc2NC(=O)N1CC(F)(F)F (stereo not drawn)  PXR (nuclear receptor subfamily 1 group I member 2) (Homo sapiens, UniProt O75469)  activation at 10 µM              %               49
1  CCCC1(c2ccc(F)cc2)c2c(ccc(F)c2F)NC(=O)N1CC(F)(F)F (stereo not drawn)  PXR (nuclear receptor subfamily 1 group I member 2) (Homo sapiens, UniProt O75469)  activation at 10 µM              %               73
2  CCC1(c2ccccc2)c2cc(F)ccc2NC(=O)N1CC(F)(F)F (single isomer, unassigned; 35B)  PXR (nuclear receptor subfamily 1 group I member 2) (Homo sapiens, UniProt O75469)  activation at 10 µM              %               74

---

- Protocol Summary: Plasma clearance in dog
- Type: ADME, organism-based, Canis lupus familiaris
Quantity Kind: clearance (mL/min/kg)

In [3]: df
Out[3]:
                                   compound  measured_result
0  O=C1Nc2ccc(F)c(F)c2C(CC(F)F)(c2ccc(F)cc2)N1CC(F)(F)F (stereo unspecified)             10.5

---

- Protocol Summary: Volume of distribution at steady state in rat
- Assay type: ADME, organism-based
- Experimental Parameters: in vivo, read-out: Vdss
Quantity Kind: Vd (L/kg)

>>> df
                                   compound  measured_result
0  O=C1Nc2ccc(F)c(F)c2C(CC(F)F)(c2ccc(F)cc2)N1CC(F)(F)F (stereo unspecified)              6.7

---

- Target Desc: Voltage-dependent T-type calcium channel subunit alpha-1I (Homo sapiens) (UniProt Q9P0X4)
- Protocol Summary: Antagonist activity at Cav3.3 alpha1i by depolarized FLIPR assay
- Type: functional
Quantity Kind: log10 of Activity (log10 of the value in nM)

In [3]: df
Out[3]:
                                    molecule      quantity_kind  measured_result
 0  CCCCC1(C2CC2)c2cc(Cl)ccc2NC(=O)N1CC(F)(F)F (centres undefined)  log10 of Activity             2.05
 1  CCC1(c2ccccc2)c2cc(F)ccc2NC(=O)N1CC(F)(F)F (single isomer, unassigned; 35A)  log10 of Activity             1.70
 2  O=C1Nc2ccc(Cl)cc2C(CCF)(c2ccc(F)cc2)N1CC(F)(F)F (single isomer, unassigned; 30B)  log10 of Activity             2.96
 3  CCC1(c2ccccc2)c2cc(Cl)ccc2NC(=O)N1CC(F)(F)F (single isomer, unassigned; 21A)  log10 of Activity             1.85
 4  O=C1Nc2ccc(F)c(F)c2C(CCO)(c2ccc(F)cc2)N1CC(F)(F)F (centres undefined)  log10 of Activity             3.49
 5  CCC1(c2ccc(F)cc2)c2c(ccc(F)c2F)N(CCOC)C(=O)N1CC(F)(F)F (centres undefined)  log10 of Activity             1.72
 6  CCC(C)C1(C2CC2)c2cc(Cl)ccc2NC(=O)N1CC(F)(F)F (centres undefined)  log10 of Activity             2.65
 7  O=C1Nc2ccc(F)c(F)c2C(CC(F)F)(c2ccc(F)cc2)N1CC(F)(F)F (centres undefined)  log10 of Activity             1.15
 8  CCC1(c2ccc(F)c(F)c2)c2cc(Cl)ccc2NC(=O)N1CC(F)(F)F (centres undefined)  log10 of Activity             2.15
 9  CCC1(c2ccccc2)c2cc(Cl)ccc2NC(=O)N1C (centres undefined)  log10 of Activity             2.93
10  CCC1(c2ccccc2)c2cc(F)ccc2NC(=O)N1CC(F)(F)F (single isomer, unassigned; 35B)  log10 of Activity             3.57
11  CCC1(c2ccccc2)c2c(ccc(F)c2F)NC(=O)N1CC(F)(F)F (stereo in doubt; 36B)  log10 of Activity             3.31
12  CCC1(c2ccc(F)cc2)c2c(ccc(F)c2F)N(Cc2c(C)noc2C)C(=O)N1CC(F)(F)F (centres undefined)  log10 of Activity             3.26
13  O=C1Nc2ccc(Cl)cc2C(CC(F)F)(c2ccc(F)cc2)N1CC(F)(F)F (single isomer, unassigned; 31B)  log10 of Activity             2.67
14  CCCC1(c2ccc(F)cc2)c2c(ccc(F)c2F)NC(=O)N1CC(F)(F)F (centres undefined)  log10 of Activity             0.78
15  CC(C)(C)C1(c2ccccc2)c2cc(F)ccc2NC(=O)N1CC(F)(F)F (centres undefined)  log10 of Activity             2.88
16  O=C1Nc2ccc(Cl)cc2C(CCF)(c2ccc(F)cc2)N1CC(F)(F)F (single isomer, unassigned; 30A)  log10 of Activity             1.62
17  CCCC1(c2cccc(-c3nccs3)c2)c2cc(Cl)ccc2NC(=O)N1CC(F)(F)F (centres undefined)  log10 of Activity             1.79
18  CCCC1(c2ccccc2)c2cc(F)ccc2NC(=O)N1CC(F)(F)F (centres undefined)  log10 of Activity             1.58
